System: MDA-MB-468 breast
Experiment: NCI-60 one-dose screen, 48 h (100 = growth as untreated, 0 = no growth, -100 = all killed)
Conditions: 10 µM unless noted
The panel holds about 83,000 compounds, 20% with a hit somewhere; the sample as a whole holds those more often. The source made the active and inactive calls. The calls were made as follows: active = growth percent below 10; inactive = the rest.
parameter: growth

Challenge: Answer with the recorded growth for the molecule listed here: "O=C1C(Cl)=C(Nc2ccc3c(c2NC2=C(Cl)C(=O)c4ccccc4C2=O)C(=O)c2ccccc2C3=O)C(=O)c2ccccc21"
Response given: 5.98% (active)

Challenge: Please indicate growth recorded for "Cc1ccc(S(=O)(=O)Nc2ccc(-c3cc(-c4cccc(F)c4)c(C#N)c(=O)[nH]3)cc2)cc1"
Response given: 67.9% (inactive)

Challenge: Quick one: give measured growth for "CCCCNC(=O)Oc1ccc(/C(=C(\C)c2ccc(OC)cc2)c2ccc(OCCN3CCCCC3)cc2)cc1"
Response given: 64.4% (inactive)

Challenge: Assign growth to the following record: "Cc1ccc(-c2nc(N3CCN(CC(=O)Nc4ccc(Cl)cc4)CC3)c3ccccc3n2)cc1"
Response given: 93.3% (inactive)

Challenge: Specify reported growth for the molecule shown: COc1ccc2c(c1)Oc1nc(N)c(C#N)c(N)c1C2Sc1ccc(O)cc1 (stereo not given)
Response given: 18.8% (inactive)

Challenge: Indicate the recorded growth value for this molecule: "O=C(Nc1nc(-c2ccccc2Cl)cs1)c1cc(-c2ccc(Br)cc2)nc2ccccc12"
Response given: 5% (active)

Challenge: Tell me its growth given CCO/C=N/C1=C(C#N)C(c2ccc(F)cc2)c2sc3c(C)cccc3c2O1 (stereo not given) as the entry.
Response given: 6% (active)

Challenge: Read the entry "COc1ccc(NC(=O)c2ccc(-c3ccccc3)cc2)c(C(N)=O)c1" and write its reported growth.
Response given: 109% (inactive)

Challenge: Return growth for the following molecule: "CC(=O)Nc1ccc(/C=C/C(=O)c2ccccc2)cc1"
Response given: 52% (inactive)

Challenge: Identify growth associated with the molecule CCOC(=O)C12CCCC1=CC(=O)CC2 (stereo not given)
Response given: 110% (inactive)
